Recorded values, source patent US9493448B2.

tested target: hNav 1.7 (Homo sapiens (Human))
Sequence (Q15858 whole entry): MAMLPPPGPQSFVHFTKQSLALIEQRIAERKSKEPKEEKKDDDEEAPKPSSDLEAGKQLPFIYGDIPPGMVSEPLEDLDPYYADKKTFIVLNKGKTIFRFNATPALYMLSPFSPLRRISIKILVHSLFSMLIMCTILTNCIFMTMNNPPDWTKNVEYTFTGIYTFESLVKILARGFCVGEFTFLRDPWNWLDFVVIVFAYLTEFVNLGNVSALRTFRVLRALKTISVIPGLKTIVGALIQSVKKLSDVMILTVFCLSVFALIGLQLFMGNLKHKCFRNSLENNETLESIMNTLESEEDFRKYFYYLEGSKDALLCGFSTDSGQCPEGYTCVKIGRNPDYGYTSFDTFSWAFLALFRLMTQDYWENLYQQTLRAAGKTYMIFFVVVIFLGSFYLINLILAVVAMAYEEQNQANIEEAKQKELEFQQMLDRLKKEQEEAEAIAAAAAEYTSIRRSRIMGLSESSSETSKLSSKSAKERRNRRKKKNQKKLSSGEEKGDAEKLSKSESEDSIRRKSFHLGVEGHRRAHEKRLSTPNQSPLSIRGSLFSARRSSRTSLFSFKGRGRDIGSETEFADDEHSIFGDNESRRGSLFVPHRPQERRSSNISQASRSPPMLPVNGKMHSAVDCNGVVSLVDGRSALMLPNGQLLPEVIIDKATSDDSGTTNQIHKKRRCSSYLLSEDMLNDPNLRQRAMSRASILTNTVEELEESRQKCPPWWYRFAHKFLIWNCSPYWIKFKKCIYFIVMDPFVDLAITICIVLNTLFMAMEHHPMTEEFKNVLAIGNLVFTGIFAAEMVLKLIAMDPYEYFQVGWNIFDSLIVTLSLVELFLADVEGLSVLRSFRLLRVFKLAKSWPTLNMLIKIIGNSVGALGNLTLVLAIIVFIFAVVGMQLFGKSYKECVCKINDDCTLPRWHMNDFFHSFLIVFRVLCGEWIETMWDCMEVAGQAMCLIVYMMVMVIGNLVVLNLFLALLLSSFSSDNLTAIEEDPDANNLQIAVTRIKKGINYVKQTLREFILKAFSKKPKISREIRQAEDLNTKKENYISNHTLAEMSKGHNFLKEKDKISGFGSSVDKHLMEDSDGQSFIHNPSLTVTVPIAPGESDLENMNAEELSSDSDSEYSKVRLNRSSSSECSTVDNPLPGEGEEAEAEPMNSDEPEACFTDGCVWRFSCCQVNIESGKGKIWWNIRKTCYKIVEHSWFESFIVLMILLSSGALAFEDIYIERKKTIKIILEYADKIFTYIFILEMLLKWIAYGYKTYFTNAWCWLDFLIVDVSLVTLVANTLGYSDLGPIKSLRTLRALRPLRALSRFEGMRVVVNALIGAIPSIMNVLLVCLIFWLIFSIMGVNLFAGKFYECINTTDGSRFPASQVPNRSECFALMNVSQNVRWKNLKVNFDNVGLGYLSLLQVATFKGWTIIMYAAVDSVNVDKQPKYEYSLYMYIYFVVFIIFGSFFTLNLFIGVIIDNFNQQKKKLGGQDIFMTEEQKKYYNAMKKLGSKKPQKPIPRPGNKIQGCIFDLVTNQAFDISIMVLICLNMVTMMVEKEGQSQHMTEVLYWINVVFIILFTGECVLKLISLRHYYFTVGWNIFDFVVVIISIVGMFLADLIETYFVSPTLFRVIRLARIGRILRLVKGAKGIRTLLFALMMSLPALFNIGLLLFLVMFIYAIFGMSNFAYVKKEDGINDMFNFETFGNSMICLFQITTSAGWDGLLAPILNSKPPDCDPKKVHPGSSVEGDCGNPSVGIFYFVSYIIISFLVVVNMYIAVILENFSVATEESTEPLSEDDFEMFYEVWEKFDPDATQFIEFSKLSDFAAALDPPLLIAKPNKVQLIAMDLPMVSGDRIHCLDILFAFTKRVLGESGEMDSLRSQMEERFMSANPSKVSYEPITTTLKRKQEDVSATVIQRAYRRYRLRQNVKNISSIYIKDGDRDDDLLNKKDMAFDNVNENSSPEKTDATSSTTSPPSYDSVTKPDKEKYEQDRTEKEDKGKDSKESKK
Sequence (Q07699 19-218 partner): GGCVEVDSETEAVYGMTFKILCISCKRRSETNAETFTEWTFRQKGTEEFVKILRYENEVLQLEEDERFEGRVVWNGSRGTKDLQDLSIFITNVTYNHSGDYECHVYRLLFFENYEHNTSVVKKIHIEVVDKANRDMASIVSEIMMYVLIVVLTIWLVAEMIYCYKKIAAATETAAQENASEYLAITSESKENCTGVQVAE
Sequence (O60939 30-215 partner): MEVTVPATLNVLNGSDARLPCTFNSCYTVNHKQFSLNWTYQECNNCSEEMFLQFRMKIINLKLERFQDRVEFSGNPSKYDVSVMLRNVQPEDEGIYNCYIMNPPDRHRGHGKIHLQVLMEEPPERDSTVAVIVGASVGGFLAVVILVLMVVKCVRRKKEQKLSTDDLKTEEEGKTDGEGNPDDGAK
measurement description: Electrophysiological evaluation, automated patch clamp IonWorks Quattro (Population Patch Clamp mode)
measurement parameters: HEK293A cells stably expressing hNav 1.7/β1/β2; response to second depolarization pulse, pre-pulse potential set to V1/2; read-out: hNav1.7 IC50
I'd be grateful if you could share measured IC50 for these entries.
Respond with a number, then the unit of measure.

Using the record for Cn1cncc1[C@H]1CCCC[C@@H]1Oc1cc(F)c(S(=O)(=O)Nc2ccncn2)cc1F (relative stereo) , report its IC50. 660 nM

Using the record for Cn1nccc1[C@H]1CCC[C@@H]1Oc1ccc(S(=O)(=O)Nc2ccncn2)cc1C(F)(F)F (relative stereo) , report its IC50. 250 nM

Using the record for Cn1nccc1[C@H]1CCC[C@@H]1Oc1cc(F)c(S(=O)(=O)Nc2ccnc(F)n2)c(F)c1 (relative stereo) , report its IC50. 30 nM

Using the record for CCc1cc(S(=O)(=O)Nc2ccncn2)ccc1O[C@H]1CCCC[C@@H]1c1c[nH]nc1N (relative stereo) , report its IC50. 130 nM

* * *

tested target: UniProt:Q15858
measurement description: Electrophysiological evaluation, automated patch clamp IonWorks Quattro (Population Patch Clamp mode)
Format: cell-based
measurement parameters: HEK293A cells stably expressing hNav 1.7/β1/β2; response to second depolarization pulse, pre-pulse potential set to V1/2; read-out: hNav1.7 IC50
Okay, here is how we bin by IC50: low bracket: < 100 nM; middle bracket: ≥ 100 nM and < 400 nM; high bracket: ≥ 400 nM

Lab note: sort Cn1nncc1[C@H]1CCCC[C@@H]1Oc1cc(F)c(S(=O)(=O)Nc2ccncn2)cc1F (relative stereo) into the matching IC50 band. high bracket

Lab note: sort O=S(=O)(Nc1ccncn1)c1cc(Cl)c(O[C@@H]2CCC[C@H]2c2ccn[nH]2)cc1F into the matching IC50 band. high bracket

Lab note: sort Cn1nccc1[C@H]1CCCC[C@@H]1Oc1cc(F)c(S(=O)(=O)Nc2ccnc(=O)[nH]2)cc1Cl (relative stereo) into the matching IC50 band. high bracket

Lab note: sort Cn1nccc1[C@H]1CCC[C@@H]1Oc1ccc(S(=O)(=O)Nc2ccncn2)c(F)c1Cl (relative stereo) into the matching IC50 band. low bracket

Lab note: sort Cc1ncccc1[C@H]1CCCC[C@@H]1Oc1cc(F)c(S(=O)(=O)Nc2ccncn2)cc1F (relative stereo) into the matching IC50 band. middle bracket

Lab note: sort Cn1nccc1[C@H]1CCC(F)(F)C[C@@H]1Oc1cc(F)c(S(=O)(=O)Nc2ccncn2)cc1Cl (relative stereo) into the matching IC50 band. low bracket

Lab note: sort Cn1nccc1[C@H]1CCC(F)(F)C[C@@H]1Oc1cc(F)c(S(=O)(=O)Nc2ccncn2)cc1F (relative stereo) [Example 47] into the matching IC50 band. middle bracket

Lab note: sort CCn1nccc1[C@H]1CCC[C@@H]1Oc1ccc(S(=O)(=O)Nc2ccncn2)c(F)c1F (relative stereo) [Example 38] into the matching IC50 band. middle bracket

Lab note: sort CO[C@H]1C[C@H](Oc2cc(F)c(S(=O)(=O)Nc3ccncn3)cc2F)[C@@H](c2ccnn2C)C1 (relative stereo) into the matching IC50 band. high bracket

Lab note: sort Cn1nccc1[C@H]1CCC[C@@H]1Oc1ccc(S(=O)(=O)Nc2ccncn2)cc1Cl (relative stereo) into the matching IC50 band. middle bracket
